Tested System: human wild-type (WT)-pendrin (Homo sapiens)
Construct: expressed in transfected cells
Sequence (O43511 1-780): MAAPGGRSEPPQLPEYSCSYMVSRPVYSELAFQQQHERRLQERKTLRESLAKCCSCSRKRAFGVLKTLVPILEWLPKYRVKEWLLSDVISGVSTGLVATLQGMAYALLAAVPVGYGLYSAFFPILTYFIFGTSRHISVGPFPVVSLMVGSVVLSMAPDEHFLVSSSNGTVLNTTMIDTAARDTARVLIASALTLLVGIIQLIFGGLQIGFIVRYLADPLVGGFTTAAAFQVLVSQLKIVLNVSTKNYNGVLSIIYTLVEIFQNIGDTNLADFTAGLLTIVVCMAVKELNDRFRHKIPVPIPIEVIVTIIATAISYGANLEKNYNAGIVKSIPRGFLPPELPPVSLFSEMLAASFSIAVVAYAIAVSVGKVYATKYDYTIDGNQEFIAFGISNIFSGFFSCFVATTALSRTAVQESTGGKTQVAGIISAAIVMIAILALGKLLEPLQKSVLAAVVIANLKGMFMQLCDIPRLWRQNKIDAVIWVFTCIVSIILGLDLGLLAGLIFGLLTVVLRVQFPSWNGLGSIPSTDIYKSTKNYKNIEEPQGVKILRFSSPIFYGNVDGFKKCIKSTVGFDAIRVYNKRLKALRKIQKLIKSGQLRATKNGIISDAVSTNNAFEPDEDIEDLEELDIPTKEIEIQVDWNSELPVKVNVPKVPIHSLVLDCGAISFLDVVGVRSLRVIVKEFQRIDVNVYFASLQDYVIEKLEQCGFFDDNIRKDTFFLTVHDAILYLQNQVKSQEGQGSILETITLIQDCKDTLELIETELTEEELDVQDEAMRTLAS
Experimental Details: Pendrin Cl−/I− exchange inhibitory activity, YFP fluorescence in CHO-K1 cells
Type: cell-based
Test Settings: CHO-K1; compound concentration 30 μM
Item-by-item account of inhibition at 30 µM

* CC1CN(C(=O)Cc2c(C(=O)O)[nH]c3ccc(Cl)cc23)CCN1c1ccccc1 (centres unmarked) [YPI-A4883] | < 20%
* CC(C)(C)OC(=O)N1CCN(C(=O)Cc2c(C(=O)O)[nH]c3ccc(Cl)cc23)CC1 [YPI-A4879] | < 20%
* COc1ccc(Cl)c(N2CCN(C(=O)Cc3c(C(=O)O)[nH]c4ccc(Cl)cc34)CC2)c1 [YPI-A4886] | 66.2%

Data request: Supply inhibition at 30 µM value. Item: Cc1cc(C)c2[nH]c(C(=O)O)c(CC(=O)N3CCN(c4ccc(C(C)(C)C)cc4)CC3)c2c1 [YPI-A4945]
Data returned: 38.5%

Data request: Supply inhibition at 30 µM value. Item: O=C(O)c1[nH]c2ccc(Cl)cc2c1CC(=O)N1CCN(c2ccc(Cl)cc2)CC1 [YPI-A4843]
Data returned: 91.4%

Data request: Supply inhibition at 30 µM value. Item: O=C(O)c1[nH]c2ccc(Cl)cc2c1CC(=O)N1CCN(c2ccccc2Cl)CC1 [YPI-A4803]
Data returned: 73.9%

Data request: Supply inhibition at 30 µM value. Item: CC1(C)CN(c2ccc(Cl)cc2)CCN1C(=O)Cc1c(C(=O)O)[nH]c2ccc(Cl)cc12 [YPI-A4884]
Data returned: < 20%

Data request: Supply inhibition at 30 µM value. Item: O=C(O)c1[nH]c2ccc(Cl)cc2c1CC(=O)N1CCN(c2ccc(F)cc2F)CC1 [YPI-A4915]
Data returned: 65.2%

---

Tested System: human wild-type (WT)-pendrin (Homo sapiens)
Construct: expressed in transfected cells
Experimental Details: Pendrin Cl−/I− exchange inhibitory activity, YFP fluorescence in CHO-K1 cells
Format: cell-based
Test Settings: CHO-K1; compound concentration 30 μM
Use 90% as the dividing line for inhibition at 30 µM, with the line itself on the Satisfied side and lower values as Not satisfied.

Data request: Is reported inhibition at 30 µM greater than or equal to 90% here: Cc1ccc(C)c(N2CCN(C(=O)Cc3c(C(=O)O)[nH]c4ccc(Cl)cc34)CC2)c1
Data returned: Satisfied

Data request: Is reported inhibition at 30 µM greater than or equal to 90% here: O=C(O)c1[nH]c2ccc(Cl)cc2c1CC(=O)N1CCN(c2ccccc2C(F)(F)F)CC1
Data returned: Satisfied

Data request: Is reported inhibition at 30 µM greater than or equal to 90% here: CCOc1ccc(N2CCN(C(=O)Cc3c(C(=O)O)[nH]c4ccc(Cl)cc34)CC2)cc1
Data returned: Not satisfied

Data request: Is reported inhibition at 30 µM greater than or equal to 90% here: CC(=O)c1ccc(N2CCN(C(=O)Cc3c(C(=O)O)[nH]c4ccc(Cl)cc34)CC2)cc1
Data returned: Not satisfied

Data request: Is reported inhibition at 30 µM greater than or equal to 90% here: C[C@@H]1CN(c2ccccc2)CCN1C(=O)Cc1c(C(=O)O)[nH]c2ccc(Cl)cc12
Data returned: Not satisfied

---

Tested System: human wild-type pendrin (Homo sapiens)
Sequence (O43511 1-780): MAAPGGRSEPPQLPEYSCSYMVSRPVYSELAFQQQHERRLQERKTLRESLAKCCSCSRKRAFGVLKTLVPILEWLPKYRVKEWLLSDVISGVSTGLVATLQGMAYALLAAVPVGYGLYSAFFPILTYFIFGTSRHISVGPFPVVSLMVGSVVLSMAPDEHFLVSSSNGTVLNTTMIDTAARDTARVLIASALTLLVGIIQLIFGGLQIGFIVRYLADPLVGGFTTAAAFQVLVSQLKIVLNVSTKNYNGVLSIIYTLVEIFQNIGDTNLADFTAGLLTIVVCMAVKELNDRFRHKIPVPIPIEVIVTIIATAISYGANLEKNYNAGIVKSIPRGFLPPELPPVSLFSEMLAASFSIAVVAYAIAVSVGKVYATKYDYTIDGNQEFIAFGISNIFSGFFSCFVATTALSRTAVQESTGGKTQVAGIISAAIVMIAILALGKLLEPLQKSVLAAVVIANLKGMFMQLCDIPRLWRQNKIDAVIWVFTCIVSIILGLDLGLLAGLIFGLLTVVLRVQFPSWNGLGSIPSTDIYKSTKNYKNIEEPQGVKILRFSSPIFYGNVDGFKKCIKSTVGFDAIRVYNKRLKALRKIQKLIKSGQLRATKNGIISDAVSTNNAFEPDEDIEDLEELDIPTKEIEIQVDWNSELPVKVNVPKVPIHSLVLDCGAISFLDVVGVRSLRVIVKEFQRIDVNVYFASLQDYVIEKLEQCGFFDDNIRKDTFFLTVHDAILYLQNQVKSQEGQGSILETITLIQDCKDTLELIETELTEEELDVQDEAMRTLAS
Experimental Details: Pendrin Cl−/SCN− exchange activity in human alveolar epithelial cells (hAEC) overexpressing pendrin
Test Settings: 0.3 μM to 30 μM, read-out: IC50 of human wild-type pendrin-mediated Cl−/SCN− exchange activity
Recorded Metric: IC50 (µM)
Just the number please, in µM, no unit attached.

Data request: Supply IC50 value. Item: Cc1ccc2[nH]c(C(=O)O)c(CC(=O)N3CCN(c4c(C)cccc4Cl)CC3)c2c1
Data returned: 0.9

---

Item-by-item account of inhibition at 30 µM
Tested System: human wild-type (WT)-pendrin (Homo sapiens)
Construct: expressed in transfected cells
Sequence (O43511 1-780): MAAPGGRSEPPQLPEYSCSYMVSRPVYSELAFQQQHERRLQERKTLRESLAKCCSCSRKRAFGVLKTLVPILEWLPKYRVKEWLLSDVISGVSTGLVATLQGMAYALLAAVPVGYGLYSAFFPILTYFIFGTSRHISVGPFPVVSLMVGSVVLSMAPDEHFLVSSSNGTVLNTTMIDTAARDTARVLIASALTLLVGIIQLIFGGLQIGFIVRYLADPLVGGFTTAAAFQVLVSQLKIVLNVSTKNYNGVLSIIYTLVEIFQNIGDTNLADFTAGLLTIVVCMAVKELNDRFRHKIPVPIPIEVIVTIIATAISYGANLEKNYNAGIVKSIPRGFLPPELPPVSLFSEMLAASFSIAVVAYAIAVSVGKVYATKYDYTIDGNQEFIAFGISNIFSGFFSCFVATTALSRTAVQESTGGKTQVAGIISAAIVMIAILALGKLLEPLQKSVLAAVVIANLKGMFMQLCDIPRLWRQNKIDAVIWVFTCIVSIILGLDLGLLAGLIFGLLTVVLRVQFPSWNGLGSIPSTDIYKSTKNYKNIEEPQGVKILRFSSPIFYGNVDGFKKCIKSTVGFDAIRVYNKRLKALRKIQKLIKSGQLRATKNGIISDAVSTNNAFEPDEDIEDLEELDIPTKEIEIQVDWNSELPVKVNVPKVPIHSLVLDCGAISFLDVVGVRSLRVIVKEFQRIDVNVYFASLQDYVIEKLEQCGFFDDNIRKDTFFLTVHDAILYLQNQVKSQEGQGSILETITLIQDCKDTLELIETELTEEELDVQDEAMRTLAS
Experimental Details: Pendrin Cl−/I− exchange inhibitory activity, YFP fluorescence in CHO-K1 cells
Assay type: cell-based
Test Settings: CHO-K1; compound concentration 30 μM

Worked cases, answers included:
- COc1ccccc1N1CCN(C(=O)Cc2c(C(=O)O)[nH]c3ccc(Cl)cc23)CC1: < 20%
- CC(C)(C)c1ccc(N2CCN(C(=O)Cc3c(C(=O)O)[nH]c4ccc(F)cc34)CC2)cc1: 62.7%
- Cc1cc(C)c2[nH]c(C(=O)O)c(CC(=O)N3CCN(c4c(C)cccc4C)CC3)c2c1: 41.3%

Data request: Supply inhibition at 30 µM value. Item: O=C(O)c1[nH]c2ccc(Cl)cc2c1CC(=O)N1CCN(c2ccc(Br)cc2)CC1
Data returned: 94.7%

Data request: Supply inhibition at 30 µM value. Item: Cc1cccc(Cl)c1N1CCN(C(=O)Cc2c(C(=O)O)[nH]c3ccc(F)cc23)CC1
Data returned: 100%

Data request: Supply inhibition at 30 µM value. Item: O=C(O)c1[nH]c2ccc(Cl)cc2c1CC(=O)N1CCN(c2ccc(F)cc2Cl)CC1
Data returned: 83.7%
